biological target: HCV NS3/4A protease genotype 1b (Hepatitis C virus genotype 1b); assay: HCV NS3/4A protease time-resolved fluorescence (TRF) assay, Ki against genotype 1b; assay type: biochemical; settings: IC50 [gt-1b] (nM), NS3/4A genotype 1b, enzyme 0.2 nM
observation.type: IC50
Note to self: number, then unit, no commentary.

Please review the entries below; each comes with its answer.
molecule: Cc1nc2ccccc2c2c1O[C@]1(CC2)C[C@H]2C(=O)N[C@]3(C(=O)NS(=O)(=O)C4(C)CC4)C[C@H]3/C=C\CCCCC[C@H](NC(=O)OC3(C(F)(F)F)CCCC3)C(=O)N2C1
IC50: 0.023 nM
//
molecule: Cc1nc2ccccc2c2c1O[C@]1(CC2)C[C@H]2C(=O)N[C@]3(C(=O)NS(=O)(=O)C4(C)CC4)C[C@H]3/C=C\CCCCC[C@H](NC(=O)OC(C)C3CC3)C(=O)N2C1 (some centres unmarked)
IC50: 0.029 nM
//
molecule: COc1ccc2nc(C(F)F)c3c(c2n1)CC[C@]1(C[C@H]2C(=O)N[C@]4(C(=O)NS(=O)(=O)C5(C)CC5)C[C@H]4/C=C\CCCCC[C@H](NC(=O)OC(C)(C)C)C(=O)N2C1)O3
IC50: 0.007 nM
//
molecule: Cc1ccc2nc(C)c3c(c2c1)CC[C@]1(C[C@H]2C(=O)N[C@]4(C(=O)NS(=O)(=O)C5(C)CC5)C[C@H]4/C=C\CCCCC[C@H](NC(=O)OC(C)C)C(=O)N2C1)O3
IC50: 0.011 nM

Continue with the next molecule.
Suppose we examine the molecule COc1ccc2nc(C(F)(F)F)c3c(c2c1)C=C[C@]1(CN2C(=O)[C@@H](NC(=O)OC(C)(C)C)CCCCC/C=C\[C@@H]4C[C@@]4(C(=O)NS(=O)(=O)C4(C)CC4)NC(=O)[C@@H]2C1C)O3 (some centres unmarked) ; what IC50 value has been reported?
0.016 nM

====

Items are presented alongside their recorded IC50.
target: HCV NS3/4A protease genotype 3a (Hepatitis C virus genotype 3a, UniProt Q81495); assay: HCV NS3/4A protease time-resolved fluorescence (TRF) assay, Ki against genotype 3a
Kindly answer with a numeric value in nM, unit omitted.

Please review the entries below; each comes with its answer.
compound: Cc1nc2ccc(C(F)(F)F)cc2c2c1O[C@]1(CC2)C[C@H]2C(=O)N[C@]3(C(=O)NS(=O)(=O)C4(C)CC4)C[C@H]3/C=C\CCCCC[C@H](NC(=O)OCC(C)(C)C)C(=O)N2C1 [Example 255]
IC50, nM: 2.86
--
compound: CCc1nc2ccc(OCCCN3CCOCC3)cc2c2c1O[C@]1(CC2)C[C@H]2C(=O)N[C@]3(C(=O)NS(=O)(=O)C4(C)CC4)C[C@H]3/C=C\CCCCC[C@H](NC(=O)OC(C)(C)C)C(=O)N2C1 [Example 514]
IC50, nM: 0.224
--
compound: Cc1nc2cc(F)c(F)cc2c2c1O[C@]1(CC2)C[C@H]2C(=O)N[C@]3(C(=O)NS(=O)(=O)C4(C)CC4)C[C@H]3/C=C\CCCCC[C@H](NC(=O)OC(C)C)C(=O)N2C1 [Example 194]
IC50, nM: 0.994
--
compound: CC(C)(C)COC(=O)N[C@H]1CCCCC/C=C\[C@@H]2C[C@@]2(C(=O)NS(=O)(=O)C2(C)CC2)NC(=O)[C@@H]2C[C@]3(CCc4c(c(C(F)F)nc5ccc(Cl)cc45)O3)CN2C1=O [Example 369]
IC50, nM: 1.18

Suppose we examine the compound COc1ccc2nc(C)c3c(c2c1)CC[C@]1(C[C@H]2C(=O)N[C@]4(C(=O)NS(=O)(=O)C5(C)CC5)C[C@H]4/C=C\CCCCC[C@H](NC(=O)OC4CCC4)C(=O)N2C1)O3 [Example 199] ; what IC50 value has been reported?
0.287
